Target: SF3b complexes (Homo sapiens, UniProt O75533+Q7RTV0)
Construct: endogenous in cells; host or cells: Nuclear extracts; A HeLa S3 extract preparation is described for the in vitro splicing assay
Assay: Scintillation proximity assay (SPA) with [3H]-labelled pladienolide probe
Type: binding
Conditions: SF3B1 (WT); geometric mean; read-out: SPA-ATS GMean IC50 (nM) SF3B1 (WT)
Method: Scintillation Proximity Assay (SPA) with [^3-H]-Labelled Pladienolide Probe Batch immobilization of anti-SF3B1 antibody (MBL) to anti-mouse PVT SPA scintillation beads (PerkinElmer) was prepared as follows: for every 2.5 mg of nuclear extracts, 5 μg anti-SF3B1 antibody and 1.5 mg of beads were mixed in 150 μl PBS. […] The mixture was incubated for 30 min, and luminescence signals were read using a MicroBeta2 Plate Counter (PerkinElmer). […]
Parameter: IC50. Scope: all listed entries.

compound	IC50, nM
C/C(=C\c1cc(F)cc(S(=O)(=O)N2CCCC2)c1)[C@H]1OC(=O)C[C@H](O)CC[C@H](C)[C@@H](OC(=O)N2CCN(C)CC2)/C=C/[C@@H]1C	2.67
C/C(=C\c1cccc(N2CCN(C)CC2)c1)[C@H]1OC(=O)C[C@H](O)CC[C@H](C)[C@@H](OC(=O)N2CCN(C)CC2)/C=C/[C@@H]1C	14.7
C/C(=C\c1cc(F)cc(N2CCN(S(=O)(=O)c3cn(C)cn3)CC2)c1)[C@H]1OC(=O)C[C@H](O)CC[C@H](C)[C@@H](OC(=O)N2CCN(C)CC2)/C=C/[C@@H]1C	8.2
C/C(=C\c1cc(F)c2nnn(C3CCS(=O)(=O)CC3)c2c1)[C@H]1OC(=O)C[C@H](O)CC[C@H](C)[C@@H](OC(=O)N2CCN(C)CC2)/C=C/[C@@H]1C	13.9
C/C(=C\c1cc(F)cc(N2CCN(S(=O)(=O)C3COC3)CC2)c1)[C@H]1OC(=O)C[C@H](O)CC[C@H](C)[C@@H](OC(=O)N2CCN(C)CC2)/C=C/[C@@H]1C	5.06
C/C(=C\c1cc(F)cc(N2CCOCC2)c1)[C@H]1OC(=O)C[C@H](O)CC[C@H](C)[C@@H](OC(=O)N2CC[C@H](N(C)C)C2)/C=C/[C@@H]1C	3.38
COc1ccc(CNC(=O)O[C@H]2/C=C/C(C)C(/C(C)=C/c3cc(F)cc(N4CCN(C(=O)Cn5cccn5)CC4)c3)OC(=O)CC(O)CC[C@@H]2C)cc1 (stereo in doubt)	1.17
C/C(=C\c1cc(F)cc(N2CCN(S(=O)(=O)CCN3CCOCC3)CC2)c1)[C@H]1OC(=O)C[C@H](O)CC[C@H](C)[C@@H](OC(=O)N2CCN(C)CC2)/C=C/[C@@H]1C	2.42
CN[C@@H]1CCN(c2cc(F)cc(/C=C(\C)[C@H]3OC(=O)C[C@H](O)CC[C@H](C)[C@@H](OC(=O)N4CCN(C)CC4)/C=C/[C@@H]3C)c2)C1	15.9
C/C(=C\c1cc(F)cc(N2C[C@@H](C)O[C@@H](C)C2)c1)[C@H]1OC(=O)C[C@H](O)CC[C@H](C)[C@@H](OC(=O)N2CCC(N3CCCCC3)CC2)/C=C/[C@@H]1C	57

---

Molecular target: SF3b complexes (Homo sapiens, UniProt O75533+Q7RTV0)
Construct: endogenous in cells; host or cells: Nuclear extracts; A HeLa S3 extract preparation is described for the in vitro splicing assay
Experiment: Scintillation proximity assay (SPA) with [3H]-labelled pladienolide probe
Format: binding
Settings: SF3B1 (WT); geometric mean; read-out: SPA-ATS GMean IC50 (nM) SF3B1 (WT)
Procedure: Scintillation Proximity Assay (SPA) with [^3-H]-Labelled Pladienolide Probe Batch immobilization of anti-SF3B1 antibody (MBL) to anti-mouse PVT SPA scintillation beads (PerkinElmer) was prepared as follows: for every 2.5 mg of nuclear extracts, 5 μg anti-SF3B1 antibody and 1.5 mg of beads were mixed in 150 μl PBS. […] The mixture was incubated for 30 min, and luminescence signals were read using a MicroBeta2 Plate Counter (PerkinElmer). […]
For each record, check the reported IC50: if it is below 2 nM write condition met, else write condition not met.

compound	category
C/C(=C\c1ccc2cnn(C)c2c1)[C@H]1OC(=O)C[C@H](O)CC[C@H](C)[C@@H](OC(=O)N2CCN(C)CC2)/C=C/[C@@H]1C	condition not met
C/C(=C\c1cc(F)cc(N(C)C2CCN(C(=O)c3cn(C)cn3)CC2)c1)[C@H]1OC(=O)C[C@H](O)CC[C@H](C)[C@@H](OC(=O)N2CCN(C)CC2)/C=C/[C@@H]1C	condition not met
CNC(=O)[C@H]1CN(c2cc(F)cc(/C=C(\C)[C@H]3OC(=O)C[C@H](O)CC[C@H](C)[C@@H](OC(=O)N4CCN(C)CC4)/C=C/[C@@H]3C)c2)CCO1	condition met
C/C(=C\c1cc(F)cc(N2CCOCC2)c1)[C@H]1OC(=O)C[C@H](O)CC[C@H](C)[C@@H](OC(=O)N2CCCC(N(C)C)C2)/C=C/[C@@H]1C (some centres unmarked)	condition not met
C/C(=C\c1cc(F)cc(N(C)C2CCN(S(=O)(=O)c3cn(C)cn3)CC2)c1)[C@H]1OC(=O)C[C@H](O)CC[C@H](C)[C@@H](OC(=O)N2CCN(C)CC2)/C=C/[C@@H]1C	condition not met

---

Tested on: Panc 05.04 cells (SF3b K700E mutant)
Assay: Cell proliferation and viability, CellTiter-Glo, 72 hours
Type: cell-based
Details: Panc 05.04, read-out: CTGlo-ATS GMean GI50 (nM) 72 h PANC0504.1; 72 h; PANC0504.1; geometric mean
Parameter: GI50. Scope: all listed entries.

compound	GI50
C/C(=C\c1cc(F)cc(NC(=O)CC2CC2)c1)[C@H]1OC(=O)C[C@H](O)CC[C@H](C)[C@@H](OC(=O)N2CCN(C)CC2)/C=C/[C@@H]1C	23.1 nM
C/C(=C\c1cccc(S(=O)(=O)N2CCC(F)(F)C2)c1)[C@H]1OC(=O)C[C@H](O)CC[C@H](C)[C@@H](OC(=O)N2CCN(C)CC2)/C=C/[C@@H]1C	82 nM
C/C(=C\c1cccc(S(=O)(=O)NC(C)(C)C)c1)[C@H]1OC(=O)C[C@H](O)CC[C@H](C)[C@@H](OC(=O)N2CCN(C)CC2)/C=C/[C@@H]1C	9.27 nM
CNS(=O)(=O)c1cccc(/C=C(\C)[C@H]2OC(=O)CC(O)CCC(C)[C@@H](OC(=O)N3CCN(C)CC3)/C=C/[C@@H]2C)c1 (stereo in doubt)	60.2 nM
C/C(=C\c1cccc(S(=O)(=O)NC(C)C)c1)[C@H]1OC(=O)CC(O)CCC(C)[C@@H](OC(=O)N2CCN(C)CC2)/C=C/[C@@H]1C (stereo in doubt)	16.4 nM
C/C(=C\c1cccc(S(=O)(=O)N2CC[C@@H](O)C2)c1)[C@H]1OC(=O)C[C@H](O)CC[C@H](C)[C@@H](OC(=O)N2CCN(C)CC2)/C=C/[C@@H]1C	33.8 nM
C/C(=C\c1cccc(COC(=O)N2CC[C@@H](F)C2)c1)[C@H]1OC(=O)C[C@H](O)CC[C@H](C)[C@@H](OC(=O)N2CCN(C)CC2)/C=C/[C@@H]1C (single isomer, unassigned) [Compound 256]	43.4 nM
C/C(=C\c1ccc(C)c(N2CCCC2=O)c1)[C@H]1OC(=O)C[C@H](O)CC[C@H](C)[C@@H](OC(=O)N2CCN(C)CC2)/C=C/[C@@H]1C	15.1 nM
C/C(=C\c1cccc(N2CCN(CCO)CC2)c1)[C@H]1OC(=O)C[C@H](O)CC[C@H](C)[C@@H](OC(=O)N2CCC(N3CCCCC3)CC2)/C=C/[C@@H]1C	64.5 nM
C/C(=C\c1cncc(S(=O)(=O)N2CCCC2)c1)[C@H]1OC(=O)C[C@H](O)CC[C@H](C)[C@@H](OC(=O)N2CCN(C)CC2)/C=C/[C@@H]1C	70.8 nM
C/C(=C\c1cccc(S(=O)(=O)N2CCC2)c1)[C@H]1OC(=O)C[C@H](O)CC[C@H](C)[C@@H](OC(=O)N2CCN(C)CC2)/C=C/[C@@H]1C	21.7 nM

---

Parameter: CTGlo-ATS Mean MinResponse % 72 h PANC0504.1. Scope: all listed entries.
Tested on: Panc 05.04 cells (SF3b K700E mutant)
Experiment: Cell proliferation and viability, CellTiter-Glo, 72 hours
Type: cell-based
Conditions: PANC0504.1 cells, 72 h; −100% cidal, 0% static, 100% maximal growth
Procedure: Cell lines were maintained in RPMI-1640 (ATCC 30-2001) supplemented with 10% fetal bovine serum (FBS). The Panc lines were supplemented in addition with insulin and FBS up to 15% total. […] Transfer of compounds from the MDR source plate to cell assay-ready plates were accomplished directly by low-energy acoustic transfer (ATS100, EDC Biosystems). […] Assay-ready plates were heat-sealed and stored at −20° C. until used, no longer than one month. […]
readout-type: CTGlo-ATS Mean MinResponse % 72 h PANC0504.1 (%)

compound	target-desc	measured-result
C/C(=C\c1cc(F)cc(N2CCN(C(=O)CC3CC3)CC2)c1)[C@H]1OC(=O)C[C@H](O)CC[C@H](C)[C@@H](OC(=O)N2CCN(C)CC2)/C=C/[C@@H]1C [Compound 121]	Panc 05.04 cells (SF3b K700E mutant)	−88.956
C/C(=C\c1cc(F)cc(N2CCN(C(=O)Cn3cccn3)CC2)c1)[C@H]1OC(=O)C[C@H](O)CC[C@H](C)[C@@H](OC(=O)N2CCN(C)CC2)/C=C/[C@@H]1C [Compound 122]	Panc 05.04 cells (SF3b K700E mutant)	−70.057
C/C(=C\c1cc(F)cc(N2CC[C@@H](O)C2)c1)[C@H]1OC(=O)C[C@H](O)CC[C@H](C)[C@@H](OC(=O)N2CCN(C)CC2)/C=C/[C@@H]1C [Compound 34]	Panc 05.04 cells (SF3b K700E mutant)	−85.656
C/C(=C\c1cc(F)cc(N2CCN(S(=O)(=O)c3cnn(C)c3)CC2)c1)[C@H]1OC(=O)C[C@H](O)CC[C@H](C)[C@@H](OC(=O)N2CCN(C)CC2)/C=C/[C@@H]1C [Compound 111]	Panc 05.04 cells (SF3b K700E mutant)	−71.803
C/C(=C\c1cc(S(=O)(=O)N2CCC(O)CC2)ccc1F)[C@H]1OC(=O)C[C@H](O)CC[C@H](C)[C@@H](OC(=O)N2CCN(C)CC2)/C=C/[C@@H]1C [Compound 91]	Panc 05.04 cells (SF3b K700E mutant)	−90.776
